Ref: the Human Domainome abundance scans (Beltran et al. 2025)

B1: Peroxisome proliferator-activated receptor delta, residues 71 to 145; numbered along this chain, Q03181 (parent)
chain: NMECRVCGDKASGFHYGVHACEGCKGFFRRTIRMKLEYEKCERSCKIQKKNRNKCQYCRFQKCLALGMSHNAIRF

Variants of: B1
Test: abundance fitness (aPCA) (normalised: wild type 0, dead -1); higher = more abundant; growth selection in yeast, the domain comes from the species named
Settings: Homo sapiens
abundance fitness: recorded values
// return a plain number; no unit text

C63F	-0.403
R43E	0.013
K10E	0.007
C55G	-0.807
I73P	0.215

Problem: Which abundance fitness is reported for this variant? "G8S"
Result: -0.362

Problem: Which abundance fitness is reported for this variant? "K40S"
Result: -0.255

Problem: Which abundance fitness is reported for this variant? "R43D"
Result: -0.149
